test-description: Peak absorption and fluorescence emission wavelengths in solvents
Format: physicochemical
conditions-used: Toluene; 100 nM; excitation at peak of absorption
endpoint-name: λem(max)/nm (nm)

compound-smiles | λem(max)/nm, nm
COC(=O)/C=C/c1ccc(C#Cc2ccc(N3CCNCC3)cc2)cc1 | 504
COC(=O)/C=C/c1ccc(C#Cc2ccc(N3CCN(C(C)=O)CC3)cc2)cc1 | 464
COCCN1C(=O)/C(=C/c2ccc(C#Cc3ccc(N4CCNCC4)cc3)cc2)N=C1C | 515
COC(=O)/C=C/c1ccc(C#Cc2ccc(N(C)CCN)cc2)cc1 | 482
COC(=O)/C=C/c1ccc(C#Cc2ccc(N3CCN(CCC[P+](c4ccccc4)(c4ccccc4)c4ccccc4)CC3)cc2)cc1.[Br-] | 506
CC(C)(C)OC(=O)/C=C/c1ccc(C#Cc2ccc(N3CCNCC3)cc2)s1 | 493
CC(C)(C)OC(=O)/C=C/c1ccc(C#Cc2ccc(N3CCNCC3)cc2)cc1 | 482
COC(=O)/C=C/c1ccc(C#Cc2ccc(N(C)CCNS(=O)(=O)c3ccc(C)cc3)cc2)cc1 | 473

---

Tested on: HaCaT keratinocytes
test-description: Co-staining with organelle markers, co-localisation (PCC)
Format: cell-based
conditions-used: 1 μM compound, 30 minutes, BODIPY ER-Tracker Red
endpoint-name: average PCC Value with BODIPY ER-Tracker

Answered examples (3):
compound-smiles | average PCC Value with BODIPY ER-Tracker
COC(=O)/C=C/c1ccc(C#Cc2ccc(N(C)CCNS(=O)(=O)c3ccc(C)cc3)cc2)cc1 | 0.30
CC(C)(C)OC(=O)/C=C/c1ccc(C#Cc2ccc(N3CCNCC3)cc2)cc1 | 0.48
COC(=O)/C=C/c1ccc(C#Cc2ccc(N(C)CCN)cc2)cc1 | 0.34

P = COC(=O)/C=C/c1ccc(C#Cc2ccc(N3CCNCC3)cc2)cc1
Q = COC(=O)/C=C/c1ccc(C#Cc2ccc(N3CCN(C(C)=O)CC3)cc2)cc1
Q) Min average PCC Value with BODIPY ER-Tracker? P | Q Return value: the label identifying the chosen record.
A) Q

---

test-description: Peak absorption and fluorescence emission wavelengths in solvents
Type: physicochemical
conditions-used: Chloroform; 100 nM; excitation at peak of absorption
endpoint-name: λem(max)/nm (nm)

compound | λem(max)/nm [nm]
COCCN1C(=O)/C(=C/c2ccc(C#Cc3ccc(N4CCNCC4)cc3)cc2)N=C1C [Compound 19] | 584
O=C1/C(=C/c2ccc(C#Cc3ccc(N4CCNCC4)cc3)cc2)N=C(c2ccccc2)N1CCN1CCOCC1 [Compound 23] | 616
COC(=O)/C=C/c1ccc(C#Cc2ccc(N3CCC3)cc2)cc1 [Compound 30] | 535
NCCN1C(=O)/C(=C/c2ccc(C#Cc3ccc(N4CCC4)cc3)cc2)N=C1c1ccccc1 [Compound 34] | 628

---

test-description: Peak absorption and fluorescence emission wavelengths in solvents
Type: physicochemical
conditions-used: DCM; 100 nM; excitation at peak of absorption
endpoint-name: λem(max)/nm (nm)

compound-smiles | endpoint-name | observed-result
COC(=O)/C=C/c1ccc(C#Cc2ccc(N(C)CCN)cc2)cc1 | λem(max)/nm | 551
COC(=O)/C=C/c1ccc(C#Cc2ccc(N(C)CCNS(=O)(=O)c3ccc(C)cc3)cc2)cc1 | λem(max)/nm | 545
COC(=O)/C=C/c1ccc(C#Cc2ccc(N3CCN(C(C)=O)CC3)cc2)cc1 | λem(max)/nm | 547
COC(=O)/C=C/c1ccc(C#Cc2ccc(N3CCN(CCC[P+](c4ccccc4)(c4ccccc4)c4ccccc4)CC3)cc2)cc1.[Br-] | λem(max)/nm | 531

src = patent US20220347299A1
